tested on: Fibroblast; assay: Multiplex assay against human fibroblast; assay type: toxicity, cell-based; conditions: 48 h, 1 µM, compound concentration 1 uM, replicate 1
Population Normal (%) reference
ENDPOINT: Population Normal (%)

{"columns": ["COMPOUND", "ENDPOINT", "UNIT OF MEASUREMENT", "MEASUREMENT"],
 "data": [
  ["COc1cc(NC(=O)CCN2CCC(OC(=O)Nc3ccccc3-c3ccccc3)CC2)c(Cl)cc1CNC[C@H](O)c1ccc(O)c2[nH]c(=O)ccc12", "Population Normal (%)", "%", 96],
  ["CC1(COc2ccc3c(c2)ncn3-c2ccc3cccc(N4CCC(N)CC4)c3n2)COC1", "Population Normal (%)", "%", 98],
  ["Cc1ccc(F)cc1C(=O)Nc1ccc(C(=O)N2Cc3cccn3Cc3ccccc32)c(Cl)c1", "Population Normal (%)", "%", 91],
  ["CCCC(CCC)C(=O)O", "Population Normal (%)", "%", 92],
  ["C[C@@H]1C[C@H]2[C@@H]3CCC4=CC(=O)C=C[C@]4(C)[C@@]3(F)[C@@H](O)C[C@]2(C)[C@@]1(O)C(=O)CO", "Population Normal (%)", "%", 93],
  ["C[C@H](NC(=O)c1c(C(F)F)nn(C)c1Oc1cccc(C(F)(F)F)c1)c1ccc(C(=O)O)cc1", "Population Normal (%)", "%", 88],
  ["CNC[C@H](O)c1ccc(O)c(O)c1 [EPINEPHRINE]", "Population Normal (%)", "%", 98],
  ["C[C@H]1[C@H]2CC[C@H]3[C@@H]4CC=C5C[C@@H](N(C)C)CC[C@]5(C)[C@H]4CC[C@]23CN1C", "Population Normal (%)", "%", 94]
]}
